# credit: patent EP4635500A1

tested on: P. aeruginosa; assay: MIC, broth microdilution, CDC/FDA Antibiotic Resistance Isolate Bank (Example 7, Tables 10, 15); assay type: cell-based; conditions: Pseudomonas aeruginosa, P. aeruginosa KUB No. 5670, AR Bank # 237; read-out: MIC
Measured Property: MIC (µg/mL)
Answer in µg/mL, number only, no unit symbol.

Recorded MIC, per entry:
Compound	Measured Property	Quantitative Readout
C[C@H]1[C@H](NC(=O)/C(=N\OC(C)(C)C(=O)O)c2csc(N)n2)C(=O)N1S(=O)(=O)O [Aztreonam, aztreonam]	MIC	4
CO/N=C(\C(=O)N[C@@H]1C(=O)N2C(C(=O)[O-])=C(C[n+]3ccn4ncccc43)CS[C@H]12)c1nsc(N)n1 [Cefozopran, cefozopran]	MIC	0.5
CN(C)c1cc(NC(=O)CNC(C)(C)C)c(O)c2c1C[C@H]1C[C@H]3[C@H](N(C)C)C(O)=C(C(N)=O)C(=O)[C@@]3(O)C(O)=C1C2=O [Tigecycline, tigecycline]	MIC	2

Could you tell me which MIC is on file for CC(C)(O/N=C(\C(=O)N[C@@H]1C(=O)N2C(C(=O)[O-])=C(C[N+]3(CCNC(=O)c4ccc(O)c(O)c4Cl)CCCC3)CS[C@H]12)c1csc(N)n1)C(=O)O [Cefiderocol, cefiderocol] ? 0.25

MIC lookup needed for NCC[C@H](O)C(=O)N[C@@H]1C[C@H](N)[C@@H](O[C@H]2O[C@H](CN)[C@@H](O)[C@H](O)[C@H]2O)[C@H](O)[C@H]1O[C@H]1O[C@H](CO)[C@@H](O)[C@H](N)[C@H]1O [Amikacin, amikacin] , thanks. 2

I'd like to know its MIC. The compound in question is C[C@H]1COc2c(N3CCN(C)CC3)c(F)cc3c(=O)c(C(=O)O)cn1c23 [Levofloxacin, levofloxacin] 0.5

###

system: Enterobacterales; test: MIC, broth microdilution, CDC/FDA Antibiotic Resistance Isolate Bank (Example 7, Tables 8, 11, 12); format: cell-based; conditions: Klebsiella oxytoca, KUB No. 5644, AR Bank # 147; read-out: MIC
The entries below are paired with their reported MIC.
Form entry: value (µg/mL) — number only.

Answered cases to consult:
Molecule	Endpoint Unit	MIC
CO/N=C(\C(=O)N[C@@H]1C(=O)N2C(C(=O)[O-])=C(C[n+]3ccn4ncccc43)CS[C@H]12)c1nsc(N)n1 [Cefozopran, cefozopran]	µg/mL	1
CC(C)(O/N=C(\C(=O)N[C@@H]1C(=O)N2C(C(=O)[O-])=C(C[N+]3(CCNC(=O)c4ccc(O)c(O)c4Cl)CCCC3)CS[C@H]12)c1csc(N)n1)C(=O)O [Cefiderocol, cefiderocol]	µg/mL	0.12

Tell me the measured MIC of C[C@H]1COc2c(N3CCN(C)CC3)c(F)cc3c(=O)c(C(=O)O)cn1c23 [Levofloxacin, levofloxacin] , please. 0.06

###

# maps each entry to its MIC
tested on: Enterobacterales; experiment: MIC, broth microdilution, CDC/FDA Antibiotic Resistance Isolate Bank (Example 7, Tables 8, 11, 12); type: cell-based; details: Enterobacter cloacae, KUB No. 5557, AR Bank# 60; read-out: MIC
All answers are understood in µg/mL, so give the number only.

Here is how some compounds turned out for MIC.
Chemical Smiles	Measured Property	Quantitative Readout
C[C@H]1COc2c(N3CCN(C)CC3)c(F)cc3c(=O)c(C(=O)O)cn1c23	MIC	0.06
C[C@H]1[C@H](NC(=O)/C(=N\OC(C)(C)C(=O)O)c2csc(N)n2)C(=O)N1S(=O)(=O)O	MIC	32
CO/N=C(\C(=O)N[C@@H]1C(=O)N2C(C(=O)[O-])=C(C[n+]3ccn4ncccc43)CS[C@H]12)c1nsc(N)n1	MIC	2
CC(C)(O/N=C(\C(=O)N[C@@H]1C(=O)N2C(C(=O)[O-])=C(C[N+]3(CCNC(=O)c4ccc(O)c(O)c4Cl)CCCC3)CS[C@H]12)c1csc(N)n1)C(=O)O	MIC	4

Here's the next entry for you.
What measured MIC goes with NCC[C@H](O)C(=O)N[C@@H]1C[C@H](N)[C@@H](O[C@H]2O[C@H](CN)[C@@H](O)[C@H](O)[C@H]2O)[C@H](O)[C@H]1O[C@H]1O[C@H](CO)[C@@H](O)[C@H](N)[C@H]1O ? 1
